Measured D4 (% inh), listed per entry.
tested.system: dopamine D4 (Homo sapiens, UniProt P21917)
Sequence (P21917 whole entry, species assumed): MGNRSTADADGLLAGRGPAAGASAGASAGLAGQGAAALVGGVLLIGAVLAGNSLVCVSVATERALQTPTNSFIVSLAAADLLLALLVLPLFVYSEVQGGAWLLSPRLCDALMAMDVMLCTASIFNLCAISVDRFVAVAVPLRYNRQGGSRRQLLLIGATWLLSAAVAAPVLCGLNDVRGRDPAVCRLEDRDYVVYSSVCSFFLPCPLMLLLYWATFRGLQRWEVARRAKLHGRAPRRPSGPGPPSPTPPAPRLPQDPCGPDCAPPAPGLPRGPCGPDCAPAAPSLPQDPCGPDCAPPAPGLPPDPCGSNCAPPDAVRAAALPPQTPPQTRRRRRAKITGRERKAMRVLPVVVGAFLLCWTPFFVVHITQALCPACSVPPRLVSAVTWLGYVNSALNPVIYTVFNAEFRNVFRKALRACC
measurement.description: Primary radioligand binding assay (NIMH PDSP)
experimental.parameters: primary radiobinding assay, N-methylspiperone
Counter-ions that a name gives are not always drawn.
property.measured: D4 (% inh)

[
  {
    "molecule": "COc1ccc2c(c1)C(=O)N(CCN1CCN(c3ccccc3OC)CC1)C2 [GFR-VII-280]",
    "readout.units": "% inh",
    "quantitative.readout": 97.2
  },
  {
    "molecule": "COc1cc2c(cc1OC)C(=O)N(CCCCN1CCN(c3ccccc3OC)CC1)C2",
    "readout.units": "% inh",
    "quantitative.readout": 91.6
  },
  {
    "molecule": "COc1ccc2c(c1)CN(CCCN1CCN(c3ccccc3OC)CC1)C2=O",
    "readout.units": "% inh",
    "quantitative.readout": 97.3
  },
  {
    "molecule": "COc1ccc2c(c1)C(=O)N(CCCN1CCN(c3ccccc3OC)CC1)C2",
    "readout.units": "% inh",
    "quantitative.readout": 99.6
  },
  {
    "molecule": "COc1ccc2c(c1)C(=O)N(CCN1CCN(c3ccccc3OC)CC1)C2 [GFR-VII-280-HCl]",
    "readout.units": "% inh",
    "quantitative.readout": 95.9
  },
  {
    "molecule": "COc1cc2c(cc1OC)C(=O)C(CC1CCN(Cc3ccccc3)CC1)C2 (stereo not shown) [donepezil, reference compound]",
    "readout.units": "% inh",
    "quantitative.readout": 89.2
  },
  {
    "molecule": "CC1Cc2ccccc2N1C(=O)CN1CCN(Cc2ccccc2)CC1 (stereo not shown)",
    "readout.units": "% inh",
    "quantitative.readout": 99.4
  }
]

====

tested.system: dopamine D1 (Homo sapiens, UniProt P21728)
Sequence (P21728 whole entry): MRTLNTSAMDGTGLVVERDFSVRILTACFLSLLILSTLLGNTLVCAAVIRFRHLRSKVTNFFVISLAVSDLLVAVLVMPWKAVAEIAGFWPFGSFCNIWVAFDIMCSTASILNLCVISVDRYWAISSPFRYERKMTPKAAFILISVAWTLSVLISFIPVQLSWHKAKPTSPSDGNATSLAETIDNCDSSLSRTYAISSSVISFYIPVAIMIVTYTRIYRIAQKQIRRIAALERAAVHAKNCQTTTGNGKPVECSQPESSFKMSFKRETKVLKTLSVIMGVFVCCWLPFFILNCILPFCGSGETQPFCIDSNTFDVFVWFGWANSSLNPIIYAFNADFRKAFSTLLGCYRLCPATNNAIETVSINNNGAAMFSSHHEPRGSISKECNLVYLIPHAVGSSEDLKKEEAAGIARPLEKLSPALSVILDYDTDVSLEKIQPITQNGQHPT
measurement.description: Primary radioligand binding assay (NIMH PDSP)
experimental.parameters: primary radiobinding assay, [3H]SCH233930
Counter-ions that a name gives are not always drawn.
D1 (% inh) less than 50 % inh is y; D1 (% inh) greater than or equal to 50 % inh is n.

[
  {
    "compound": "COc1ccc2c(c1)C(=O)N(CCN1CCN(c3ccccc3OC)CC1)C2 [GFR-VII-280-HCl]",
    "label": "y"
  },
  {
    "compound": "COc1cc2c(cc1OC)C(=O)N(CCCCN1CCN(c3ccccc3OC)CC1)C2",
    "label": "n"
  },
  {
    "compound": "COc1ccc2c(c1)CN(CCCN1CCN(c3ccccc3OC)CC1)C2=O",
    "label": "n"
  },
  {
    "compound": "CC1Cc2ccccc2N1C(=O)CN1CCN(c2ccccc2)CC1 (stereo not shown)",
    "label": "y"
  },
  {
    "compound": "COc1ccc2c(c1)C(=O)N(CCN1CCN(c3ccccc3OC)CC1)C2 [GFR-VII-280]",
    "label": "y"
  }
]

====

Measured α1D/D2, listed per entry.
tested.system: 5HT1a (Homo sapiens, UniProt P08908)
Sequence (P08908 whole entry, species assumed): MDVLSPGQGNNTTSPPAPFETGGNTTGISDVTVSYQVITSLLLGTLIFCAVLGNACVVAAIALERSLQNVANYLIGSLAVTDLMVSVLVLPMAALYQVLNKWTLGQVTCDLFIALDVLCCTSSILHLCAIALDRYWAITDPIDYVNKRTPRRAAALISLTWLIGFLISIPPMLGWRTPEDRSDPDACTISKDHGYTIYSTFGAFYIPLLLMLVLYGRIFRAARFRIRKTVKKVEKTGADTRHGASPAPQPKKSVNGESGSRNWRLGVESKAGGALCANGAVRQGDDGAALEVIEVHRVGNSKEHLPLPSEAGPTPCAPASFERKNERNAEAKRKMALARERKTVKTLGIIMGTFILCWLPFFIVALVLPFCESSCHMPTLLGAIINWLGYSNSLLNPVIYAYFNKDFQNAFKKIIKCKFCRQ
measurement.description: Secondary radioligand binding assay (Ki)
experimental.parameters: Table 24: Selectivity of 5HT1A over α1 Receptors; ratio of Ki
Counter-ions that a name gives are not always drawn.

[
  {
    "molecule": "COc1ccc2c(c1)CN(CCCN1CCN(c3ccccc3OC)CC1)C2=O [GFR-VII-290]",
    "tested.system": "5HT1a (Homo sapiens, UniProt P08908)",
    "α1D/D2": 2.9
  },
  {
    "molecule": "COc1ccc2c(c1)C(=O)N(CCN1CCN(c3ccccc3OC)CC1)C2 [GFR-VII-280]",
    "tested.system": "5HT1a (Homo sapiens, UniProt P08908)",
    "α1D/D2": 3.5
  },
  {
    "molecule": "COc1ccc2c(c1)C(=O)N(CCN1CCN(c3ccccc3OC)CC1)C2 [GFR-VII-280-HCl]",
    "tested.system": "5HT1a (Homo sapiens, UniProt P08908)",
    "α1D/D2": 2.1
  },
  {
    "molecule": "COc1ccc2c(c1)C(=O)N(CCCN1CCN(c3ccccc3OC)CC1)C2 [GFR-VII-273]",
    "tested.system": "5HT1a (Homo sapiens, UniProt P08908)",
    "α1D/D2": 12.5
  },
  {
    "molecule": "COc1cc2c(cc1OC)C(=O)N(CCCCN1CCN(c3ccccc3OC)CC1)C2 [GFR-VII-285]",
    "tested.system": "5HT1a (Homo sapiens, UniProt P08908)",
    "α1D/D2": 0.2
  }
]
